tested on: Escherichia hermannii; experiment: Antibacterial activity against Escherichia hermannii 33650 after 18 hrs; assay type: functional; conditions: Atlantibacter hermannii, 33650, 18 h
Endpoint name: MIC (µg/mL)
Numbers only, in µg/mL.

Completed entries (count: 4):
>  <Compound>
OC[C@H]1O[C@H](Oc2cc(Cl)ccc2Oc2ccc(Cl)cc2Cl)[C@H](O)[C@@H](O)[C@H]1O

>  <Endpoint name>
MIC

>  <Unit symbol>
µg/mL

>  <Measured value>
32

$$$$
>  <Compound>
O[C@@H]1[C@H](Oc2cc(Cl)ccc2Oc2ccc(Cl)cc2Cl)OC[C@@H](O)[C@H]1O

>  <Endpoint name>
MIC

>  <Unit symbol>
µg/mL

>  <Measured value>
32

$$$$
>  <Compound>
OC[C@H]1O[C@@H](Oc2cc(Cl)ccc2Oc2ccc(Cl)cc2Cl)[C@H](O)[C@@H](O)[C@H]1O

>  <Endpoint name>
MIC

>  <Unit symbol>
µg/mL

>  <Measured value>
2

$$$$
>  <Compound>
OC[C@H]1O[C@H](Oc2cc(Cl)ccc2Oc2ccc(Cl)cc2Cl)[C@H](O)[C@@H](O)[C@@H]1O

>  <Endpoint name>
MIC

>  <Unit symbol>
µg/mL

>  <Measured value>
1

$$$$

Required: MIC, one value per compound below.
1. OC[C@H]1O[C@H](Oc2cc(Cl)ccc2Oc2ccc(Cl)cc2Cl)[C@@H](O)[C@@H](O)[C@@H]1O
2. OC[C@H]1O[C@@H](Oc2cc(Cl)ccc2Oc2ccc(Cl)cc2Cl)[C@H](O)[C@@H](O)[C@@H]1O
3. O[C@@H]1[C@@H](Oc2cc(Cl)ccc2Oc2ccc(Cl)cc2Cl)OC[C@@H](O)[C@H]1O
4. Oc1cc(Cl)ccc1Oc1ccc(Cl)cc1Cl [TRICLOSAN]

Key:
16
16
1
0.5

###

test system: Enterococcus faecalis; assay: Antibacterial activity against Enterococcus faecalis ATCC 33186 after 18 hrs; format: functional; conditions: ATCC 33186, 18 h
Endpoint name: MIC

>  <Molecule smiles>
OC[C@H]1O[C@H](Oc2cc(Cl)ccc2Oc2ccc(Cl)cc2Cl)[C@@H](O)[C@@H](O)[C@@H]1O

>  <MIC>
256 µg/mL

$$$$
>  <Molecule smiles>
O[C@@H]1[C@@H](Oc2cc(Cl)ccc2Oc2ccc(Cl)cc2Cl)OC[C@@H](O)[C@H]1O

>  <MIC>
128 µg/mL

$$$$
>  <Molecule smiles>
O[C@@H]1[C@H](Oc2cc(Cl)ccc2Oc2ccc(Cl)cc2Cl)OC[C@@H](O)[C@H]1O

>  <MIC>
256 µg/mL

$$$$
>  <Molecule smiles>
OC[C@H]1O[C@H](Oc2cc(Cl)ccc2Oc2ccc(Cl)cc2Cl)[C@H](O)[C@@H](O)[C@@H]1O

>  <MIC>
128 µg/mL

$$$$

Hello, I would appreciate it if you could give MIC for each entry below.
1. Oc1cc(Cl)ccc1Oc1ccc(Cl)cc1Cl
2. OC[C@H]1O[C@@H](Oc2cc(Cl)ccc2Oc2ccc(Cl)cc2Cl)[C@H](O)[C@@H](O)[C@H]1O
3. OC[C@H]1O[C@@H](Oc2cc(Cl)ccc2Oc2ccc(Cl)cc2Cl)[C@H](O)[C@@H](O)[C@@H]1O

Key:
["8 µg/mL", "128 µg/mL", "16 µg/mL"]

Exercise: # lookup: MIC of OC[C@H]1O[C@H](Oc2cc(Cl)ccc2Oc2ccc(Cl)cc2Cl)[C@H](O)[C@@H](O)[C@H]1O
Key: > 256 µg/mL
